# Assay Overview: Tmax in ICR mouse at 25 mg/kg, po measured upto 8 hrs by LC-MS/MS analysis
# Type: ADME, organism-based
# Setup Conditions: in vivo
Observable: Tmax (min)
Numbers only; they are read as min.

Some entries whose results are on file:
> print(dat)
                                chem.smiles  observable  result.units  meas.value
1  C=C(C)[C@@H]1CCC(C)=C[C@H]1c1ccc(C2CC2)c(C(N)=O)c1O        Tmax           min          24
2  C=C(C)[C@@H]1CCC(C)=C[C@H]1c1c(O)cc(C2(CCCC)CC2)c(C(N)=O)c1O        Tmax           min          78

For C=C(C)[C@@H]1CCC(C)=C[C@H]1c1c(O)cc(C2(CCCC)CC2)c(C(=O)N(C)C)c1O , what is its reported Tmax? 42

Also, C=C(C)[C@@H]1CCC(C)=C[C@H]1c1c(O)cc(CCCCC)cc1O please. 42

Also, C=C(C)[C@@H]1CCC(C)=C[C@H]1c1c(O)cc(C2CCCC2)cc1O please. 60

Also, C=C(C)[C@@H]1CCC(C)=C[C@H]1c1c(O)cc(CCCCC)c(C(=O)N(C)C)c1O please. 24

Also, C=C(C)[C@@H]1CCC(C)=C[C@H]1c1c(O)cc(C2CCCCC2)cc1O please. 48

Source of measurements: ChEMBL document CHEMBL5528023
